Tested System: peptide with the desired target sequence of TNF-alpha
Record form. Attribute: k with comp./k without comp.. Fill in for each entry.
Give bare numbers.

{"columns": ["Protein", "Endpoint Name", "Measured Number"],
 "data": [
  ["variant b (protein) IVGGYNCEENSVPYQVSLNSGYHFCGGSLINEQWVVSAGHCYGFVMFNKSRIQVRLGEHNIEVLEGNEQFINAAKIIRHPQYDRKTLNNDIMLIKLSSRAVINARVSTISLPTAPPATGTKCLISGWGNRSPLTTASSGADYPDELQCLDAPVLSQAKCEASYPGKITSNMFCVGFLEGGKDSCQGDSGGPVVCNGQLQGVVSWGDGCAQKNKPGVYTKVYNYVKWIKNTIAANS", "k with comp./k without comp.", 0.187],
  ["variant d (protein) IVGGYNCEENSVPYQVSLNSGYHFCGGSLINEQWVVSAGHCYKAVVGTKSRIQVRLGEHNIEVLEGNEQFINAAKIIRHPQYDRKTLNNDIMLIKLSSRAVINARVSTISLPTAPPATGTKCLISGWGNRTPISTASSGADYPDELQCLDAPVLSQAKCEASYPGKITSNMFCVGFLEGGKDSCQGDSGGPVVCNGQLQGVVSWGDGCAQKNKPGVYTKVYNYVKWIKNTIAANS", "k with comp./k without comp.", 0.31],
  ["variant f (protein) IVGGYNCEENSVPYQVSLNSGYHFCGGSLINEQWVVSAGHCYAAFNGDKSRIQVRLGEHNIEVLEGNEQFINAAKIIRHPQYDRKTLNNDIMLIKLSSRAVINARVSTISLPTAPPATGTKCLISGWGNRKDFWTASSGADYPDELQCLDAPVLSQAKCEASYPGKITSNMFCVGFLEGGKDSCQGDSGGPVVCNGQLQGVVSWGDGCAQKNKPGVYTKVYNYVKWIKNTIAANS", "k with comp./k without comp.", 0.487],
  ["variant e (protein) IVGGYNCEENSVPYQVSLNSGYHFCGGSLINEQWVVSAGHCYVNIMAAKSRIQVRLGEHNIEVLEGNEQFINAAKIIRHPQYDRKTLNNDIMLIKLSSRAVINARVSTISLPTAPPATGTKCLISGWGNTTARKTASSGADYPDELQCLDAPVLSQAKCEASYPGKITSNMFCVGFLEGGKDSCQGDSGGPVVCNGQLQGVVSWGDGCAQKNKPGVYTKVYNYVKWIKNTIAANS", "k with comp./k without comp.", 0.374],
  ["variant c (protein) IVGGYNCEENSVPYQVSLNSGYHFCGGSLINEQWVVSAGHCYEIANREKSRIQVRLGEHNIEVLEGNEQFINAAKIIRHPQYDRKTLNNDIMLIKLSSRAVINARVSTISLPTAPPATGTKCLISGWGNRGARTTASSGADYPDELQCLDAPVLSQAKCEASYPGKITSNMFCVGFLEGGKDSCQGDSGGPVVCNGQLQGVVSWGDGCAQKNKPGVYTKVYNYVKWIKNTIAANS", "k with comp./k without comp.", 0.235]
]}

Let us move to another entry and its k with comp./k without comp..
Recorded k with comp./k without comp. (protein variant a (protein) IVGGYNCEENSVPYQVSLNSGYHFCGGSLINEQWVVSAGHCYRPWDPSKSRIQVRLGEHNIEVLEGNEQFINAAKIIRHPQYDRKTLNNDIMLIKLSSRAVINARVSTISLPTAPPATGTKCLISGWGNVHPTSTASSGADYPDELQCLDAPVLSQAKCEASYPGKITSNMFCVGFLEGGKDSCQGDSGGPVVCNGQLQGVVSWGDGCAQKNKPGVYTKVYNYVKWIKNTIAANS ): 0.13
